Provenance of the data: the RNAGym collection of RNA variant scans (doi:10.1073/pnas.2313332121)

B1: TPR 5TU (parent)
chain: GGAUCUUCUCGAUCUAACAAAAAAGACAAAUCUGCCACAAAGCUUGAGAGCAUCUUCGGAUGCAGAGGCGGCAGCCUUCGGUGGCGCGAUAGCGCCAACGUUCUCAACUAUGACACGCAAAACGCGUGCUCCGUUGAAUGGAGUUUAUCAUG

- Variants of: B1
- Experiment summary: polymerase ribozyme fitness, log enrichment relative to wild type (log ratio); higher = more active; in vitro selection for triplet polymerase activity
This sample holds only a part of the variants without activity.
Below: a set of entries, each annotated with reported polymerase ribozyme fitness (log ratio).

See these solved cases before continuing.
Mutation | polymerase ribozyme fitness (log ratio)
U55A C76G G100C U109A A120G | ≤ -4.2
U9C C10G | -4.15

Any idea what its polymerase ribozyme fitness (log ratio) is? The variant is G42A C96A A122G A138G U145G
≤ -4.2

For the variant shown here, U53A G83U A147C , give the reported polymerase ribozyme fitness (log ratio).
-1.91
